- Test system: IL-6
- ASSAY: Inhibition of IL-6 production by stimulated human peripheral blood leukocytes in vitro
- Assay type: cell-based
- EXPERIMENTAL SETUP: Homo sapiens, Leukocyte, 50 μM; LPS-stimulated PBL; read-out: Percentage of inhibition of IL-6 production
MEASURE NAME: inhibition at 50 µM (%)
State the answer as a number, implicitly in %.

{"columns": ["MOLECULE", "STUDY TARGET", "MEASURE NAME", "NUMERIC VALUE"],
 "data": [
  ["CC[C@H]1OC(=O)[C@H](C)[C@@H](OC2C[C@@](C)(OC)[C@@H](OC(=O)CCN3CCNCC3)[C@H](C)O2)[C@H](C)[C@@H](OC2O[C@H](C)C[C@H](N(C)C)[C@H]2O)[C@](C)(OC)C[C@@H](C)C(=O)[C@H](C)[C@@H](O)[C@]1(C)O (stereo partly drawn)", "IL-6", "inhibition at 50 µM", 54]
]}

stdin: Name the reported inhibition at 50 µM value associated with the molecule CC[C@H]1OC(=O)[C@H](C)[C@@H](O[C@H]2C[C@@](C)(OC)[C@@H](OC(=O)CCN(CC)CC)[C@H](C)O2)[C@H](C)[C@@H](O[C@@H]2O[C@H](C)C[C@H](N(C)C)[C@H]2O)[C@](C)(O)C[C@@H](C)CN(C)[C@H](C)[C@@H](O)[C@]1(C)O
stdout: 97

stdin: Name the reported inhibition at 50 µM value associated with the molecule CC[C@H]1OC(=O)[C@H](C)[C@@H](O[C@H]2C[C@@](C)(OC)[C@@H](OC(=O)CCN3CC(C)CC(C)C3)[C@H](C)O2)[C@H](C)[C@@H](O[C@@H]2O[C@H](C)C[C@H](N(C)C)[C@H]2O)[C@](C)(OC)C[C@@H](C)C(=O)N[C@H](C)[C@@H](O)[C@]1(C)O (stereo partly drawn)
stdout: 78

stdin: Name the reported inhibition at 50 µM value associated with the molecule CC[C@H]1OC(=O)[C@H](C)[C@@H](O[C@H]2C[C@@](C)(OC)[C@@H](OC(=O)CCNC3CC3)[C@H](C)O2)[C@H](C)[C@@H](O[C@@H]2O[C@H](C)C[C@H](N(C)C)[C@H]2O)[C@](C)(OC)C[C@@H](C)C(=O)N[C@H](C)[C@@H](O)[C@]1(C)O
stdout: 0

stdin: Name the reported inhibition at 50 µM value associated with the molecule CC[C@H]1OC(=O)[C@H](C)[C@@H](O[C@H]2C[C@@](C)(OC)[C@@H](OC(=O)CCN(CC)CC)[C@H](C)O2)[C@H](C)[C@@H](O[C@@H]2O[C@H](C)C[C@H](N(C)C)[C@H]2O)[C@](C)(OC)C[C@@H](C)C(=O)[C@H](C)[C@H]2NC(=O)O[C@@]21C
stdout: 100

stdin: Name the reported inhibition at 50 µM value associated with the molecule CC[C@H]1OC(=O)[C@H](C)[C@@H](O[C@H]2C[C@@](C)(OC)[C@@H](OC(=O)CCN(C)C)[C@H](C)O2)[C@H](C)[C@@H](O[C@@H]2O[C@H](C)C[C@H](N(C)C)[C@H]2O)[C@](C)(OC)C[C@@H](C)C(=O)N[C@H](C)[C@@H](O)[C@]1(C)O
stdout: 81

stdin: Name the reported inhibition at 50 µM value associated with the molecule CC[C@H]1OC(=O)[C@H](C)[C@@H](O[C@H]2C[C@@](C)(OC)[C@@H](OC(=O)CCN3CCN(CC4CCCN(C)C4)CC3)[C@H](C)O2)[C@H](C)[C@@H](O[C@@H]2O[C@H](C)C[C@H](N(C)C)[C@H]2O)[C@](C)(OC)C[C@@H](C)C(=O)N[C@H](C)[C@@H](O)[C@]1(C)O (stereo partly drawn)
stdout: 30

stdin: Name the reported inhibition at 50 µM value associated with the molecule CC[C@H]1OC(=O)[C@H](C)[C@@H](O[C@H]2C[C@@](C)(OC)[C@@H](O)[C@H](C)O2)[C@H](C)[C@@H](O[C@@H]2O[C@H](C)C[C@H](N(C)C)[C@H]2O)[C@](C)(OC)C[C@@H](C)C(=O)[C@H](C)[C@@H](O)[C@]1(C)O [clarithromycin, reference compound]
stdout: 0

stdin: Name the reported inhibition at 50 µM value associated with the molecule CC[C@H]1OC(=O)[C@H](C)[C@@H](O[C@H]2C[C@@](C)(OC)[C@@H](OC(=O)CCN(CC)CC)[C@H](C)O2)[C@H](C)[C@@H](O[C@@H]2O[C@H](C)C[C@H](NC)[C@H]2O)[C@](C)(OC)C[C@@H](C)C(=O)N[C@H](C)[C@@H](O)[C@]1(C)O
stdout: 58

###

- Test system: IL-1α
- ASSAY: Inhibition of IL-1 production by stimulated human peripheral blood leukocytes in vitro
- Assay type: cell-based
- EXPERIMENTAL SETUP: 50 μM; zymosan-stimulated PBL
Attribute: Percentage of inhibition of IL-1α production
State the answer as a number, implicitly in %.

Here's what some known entries look like.
{"columns": ["MOLECULE", "NUMERIC VALUE"],
 "data": [
  ["CCC1OC(=O)C(C)C(OC2CC(C)(OC)C(OCCCN3CCN(CCN(CC)CC)CC3)C(C)O2)C(C)C(OC2OC(C)CC(N(C)C)C2O)C(C)(O)CC(C)CN(C)C(C)C2OC(=O)OC12C (stereo not shown)", 34],
  ["CC[C@H]1OC(=O)[C@H](C)[C@@H](O[C@H]2C[C@@](C)(OC)[C@@H](OCCCN(CC)CC)[C@H](C)O2)[C@H](C)[C@@H](O[C@@H]2O[C@H](C)C[C@H](N(C)C)[C@H]2O)[C@](C)(O)C[C@@H](C)CN(C)[C@H](C)[C@H]2OC(=O)O[C@@]21C", 42],
  ["CCC1OC(=O)C(C)C(OC2CC(C)(OC)C(OC(=O)CCN(CC)CC)C(C)O2)C(C)C(OC2OC(C)CC(N(C)C)C2O)C(C)(OC)CC(C)C(=O)NC(C)C(O)C1(C)O (stereo not shown)", 94]
]}

Query molecule follows.
stdin: Name the reported Percentage of inhibition of IL-1α production value associated with the molecule CCC(=O)N(C)[C@H]1C[C@@H](C)O[C@@H](O[C@@H]2[C@@H](C)[C@H](O[C@H]3C[C@@](C)(OC)[C@@H](OC(=O)CCN(CC)CC)[C@H](C)O3)[C@@H](C)C(=O)O[C@H](CC)[C@@](C)(O)[C@H](O)[C@@H](C)NC(=O)[C@H](C)C[C@@]2(C)OC)[C@@H]1O
stdout: 100

###

- Tested on: TNF-α
- ASSAY: Inhibition of TNF-α production by stimulated human peripheral blood leukocytes in vitro
- Assay type: cell-based
- EXPERIMENTAL SETUP: Homo sapiens, Leukocyte, 10 μM; LPS-stimulated PBL; read-out: Percentage of inhibition of TNF-α production
- Description: Test substances used in in vitro experiments were dissolved in dimethyl sulfoxide (DMSO) (Kemika, Croatia) at concentrations of 50 mM and 10 mM, and were further diluted to final concentrations of 50 μM and 10 μM in 1 mL Dulbecco's modified Eagle medium (DMEM) supplemented with 1% heat inactivated fetal bovine serum (FBS), 1% L-glutamine, 50 U/ml penicillin, 50 μg/ml streptomycin and 2.5 μg/mL Fungizone (amphotericin B). […]
MEASURE NAME: inhibition at 10 µM (%)
State the answer as a number, implicitly in %.

{"columns": ["MOLECULE", "NUMERIC VALUE"],
 "data": [
  ["CC[C@H]1OC(=O)[C@H](C)[C@@H](O[C@H]2C[C@@](C)(OC)C(OC(=O)CCN(CC)CC)[C@H](C)O2)[C@H](C)[C@@H](O[C@@H]2O[C@H](C)C[C@H](NC)[C@H]2O)[C@](C)(O)C[C@@H](C)CN(C)[C@H](C)[C@@H](O)[C@]1(C)O (some centres unmarked)", 78]
]}

Query molecule follows.
stdin: Name the reported inhibition at 10 µM value associated with the molecule CC[C@H]1OC(=O)[C@H](C)[C@@H](O[C@H]2C[C@@](C)(OC)[C@@H](OC(=O)CCN3CCN(CCOCCO)CC3)[C@H](C)O2)[C@H](C)[C@@H](O[C@@H]2O[C@H](C)C[C@H](N(C)C)[C@H]2O)[C@](C)(OC)C[C@@H](C)C(=O)N[C@H](C)[C@@H](O)[C@]1(C)O
stdout: 9

###

- Test system: IL-6
- ASSAY: Inhibition of IL-6 production by stimulated human peripheral blood leukocytes in vitro
- Type: cell-based
- EXPERIMENTAL SETUP: Homo sapiens, Leukocyte, 50 μM; PMA-stimulated PBL; read-out: Percentage of inhibition of IL-6 production
Attribute: inhibition at 50 µM
State the answer as a number, implicitly in %.

{"columns": ["COMPOUND", "inhibition at 50 µM, %"],
 "data": [
  ["CC[C@H]1OC(=O)[C@H](C)[C@@H](O[C@H]2C[C@@](C)(OC)[C@@H](O)[C@H](C)O2)[C@H](C)[C@@H](O[C@@H]2O[C@H](C)C[C@H](N(C)C)[C@H]2O)[C@](C)(O)C[C@@H](C)CN(C)[C@H](C)[C@@H](O)[C@]1(C)O [azithromycin, reference compound]", 0]
]}

stdin: Name the reported inhibition at 50 µM value associated with the compound CC[C@H]1OC(=O)[C@H](C)[C@@H](O[C@H]2C[C@@](C)(OC)[C@@H](OC(=O)CCN(CC)CC)[C@H](C)O2)[C@H](C)[C@@H](O[C@@H]2O[C@H](C)C[C@H](N(C)C)[C@H]2O)[C@](C)(OC)C[C@@H](C)C(=O)[C@H](C)[C@H]2NC(=O)O[C@@]21C [Example 9]
stdout: 95
